Source: patent US20230107186A1

Test: Viability of uninfected cell lines (MTT assay)
Format: cell-based, human; african green monkey
Details: human (Calu-3, T84); African green monkey (Vero E6); uninfected Calu-3, T84, Vero E6; 48 h; MTT; read-out: half cytotoxic concentration (CC50) range

| compound | CC50 at 48 h |
| --- | --- |
| CC(C)c1nc(CN(C)C(=O)N[C@@H](CCN2CCOCC2)C(=O)N[C@H](CC[C@H](Cc2ccccc2)NC(=O)OCc2cncs2)Cc2ccccc2)cs1 [Cobicistat] | 38.7 to 53 µM |
